# Assay System: Androgen Receptor (AR) protein (Homo sapiens, UniProt P10275, T878A)
# Construct: endogenous in cells; host or cells: LNCaP
# Sequence (P10275 whole entry T878A): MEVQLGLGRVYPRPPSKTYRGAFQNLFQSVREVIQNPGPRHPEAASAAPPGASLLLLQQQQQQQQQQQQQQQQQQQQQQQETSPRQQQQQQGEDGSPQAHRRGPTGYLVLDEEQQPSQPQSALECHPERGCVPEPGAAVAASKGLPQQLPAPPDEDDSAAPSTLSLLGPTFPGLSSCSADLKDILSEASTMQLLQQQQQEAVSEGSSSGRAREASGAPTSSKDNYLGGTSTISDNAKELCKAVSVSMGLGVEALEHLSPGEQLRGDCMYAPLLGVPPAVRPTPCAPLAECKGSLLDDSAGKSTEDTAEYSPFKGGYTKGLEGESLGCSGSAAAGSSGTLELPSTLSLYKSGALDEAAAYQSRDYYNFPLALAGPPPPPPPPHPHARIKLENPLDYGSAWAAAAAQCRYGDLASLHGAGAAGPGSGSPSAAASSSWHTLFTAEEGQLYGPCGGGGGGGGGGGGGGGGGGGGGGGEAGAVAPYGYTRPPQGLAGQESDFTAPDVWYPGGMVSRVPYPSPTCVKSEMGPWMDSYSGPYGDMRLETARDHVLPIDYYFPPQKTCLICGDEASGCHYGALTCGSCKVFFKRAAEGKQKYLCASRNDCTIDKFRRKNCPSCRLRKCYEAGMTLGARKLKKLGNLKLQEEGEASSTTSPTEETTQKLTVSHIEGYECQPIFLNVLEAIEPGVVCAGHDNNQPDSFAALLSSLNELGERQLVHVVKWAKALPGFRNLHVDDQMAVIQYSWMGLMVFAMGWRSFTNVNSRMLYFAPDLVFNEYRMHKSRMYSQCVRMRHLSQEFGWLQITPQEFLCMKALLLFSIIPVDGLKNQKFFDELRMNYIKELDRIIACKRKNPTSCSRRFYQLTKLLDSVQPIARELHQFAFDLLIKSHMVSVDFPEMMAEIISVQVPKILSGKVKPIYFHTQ
# Sequence (Q96SW2 whole entry partner): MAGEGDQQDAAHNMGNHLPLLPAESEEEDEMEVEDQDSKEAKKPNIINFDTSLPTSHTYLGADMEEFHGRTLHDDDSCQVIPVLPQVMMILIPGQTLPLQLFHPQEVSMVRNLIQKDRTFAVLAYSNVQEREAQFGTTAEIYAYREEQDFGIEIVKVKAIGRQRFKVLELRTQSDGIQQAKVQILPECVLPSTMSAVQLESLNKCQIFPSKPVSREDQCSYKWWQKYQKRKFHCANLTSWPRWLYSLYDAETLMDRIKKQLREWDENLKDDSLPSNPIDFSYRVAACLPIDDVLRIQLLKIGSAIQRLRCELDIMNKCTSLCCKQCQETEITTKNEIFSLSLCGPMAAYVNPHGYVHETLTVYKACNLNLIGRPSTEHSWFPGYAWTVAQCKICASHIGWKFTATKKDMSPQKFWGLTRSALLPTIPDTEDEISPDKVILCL
# Experimental Details: Androgen Receptor (AR) protein degradation assay in LNCaP cells, western blotting
# Format: cell-based
# Assay Setup: 20 h, 0.01 μM compound
Reported inhibition at 0.01 µM values follow for various compounds

Compound | Assay System | inhibition at 0.01 µM
N#Cc1ccc(N2CCC(C(=O)Nc3ncc(N4CCC(CN5CCN(CC6CCN(c7cc8c(cc7F)C(=O)N(C7CCC(=O)NC7=O)C8=O)CC6)CC5)CC4)cn3)CC2)cc1C(F)(F)F (stereo not drawn) [Example 159] | Androgen Receptor (AR) protein (Homo sapiens, UniProt P10275, T878A) | -16%
N#Cc1ccc(N2CCC(C(=O)Nc3ccc(N4CCN(CCC5CCN(c6ccc7c(c6)C(=O)N(C6CCC(=O)NC6=O)C7=O)CC5)CC4)cn3)CC2)cc1C(F)(F)F (stereo not drawn) [Example 119] | Androgen Receptor (AR) protein (Homo sapiens, UniProt P10275, T878A) | 21%
C[C@@H]1CN(C2CCN(c3ccc4c(c3)C(=O)N(C3CCC(=O)NC3=O)C4=O)CC2)CCN1CC1CCN(c2ccc(NC(=O)C3CCN(c4ccc(C#N)c(C(F)(F)F)c4)CC3)nc2)CC1 (stereo partly drawn) [Example 42] | Androgen Receptor (AR) protein (Homo sapiens, UniProt P10275, T878A) | 65%

---

# Assay System: Androgen Receptor (AR) protein (Homo sapiens, UniProt P10275, T878A)
# Construct: endogenous in cells; host or cells: LNCaP
# Experimental Details: Androgen Receptor (AR) protein degradation assay in LNCaP cells, western blotting
# Format: cell-based
# Assay Setup: 20 h, 0.1 μM compound
Property: inhibition at 0.1 µM (%)

Compound | Number
N#Cc1ccc(N2CCC(C(=O)Nc3ccc(N4CCC(CCN5CC6CN(c7ccc8c(c7)C(=O)N(C7CCC(=O)NC7=O)C8=O)CC6C5)CC4)cn3)CC2)cc1C(F)(F)F (centres unmarked) | 95
N#Cc1ccc(N2CCC(C(=O)Nc3ccc(N4CCN(CCCCCOc5ccc6c(c5)C(=O)N(C5CCC(=O)NC5=O)C6=O)CC4)cn3)CC2)cc1C(F)(F)F (centres unmarked) | 92
N#Cc1ccc(N2CCC(C(=O)Nc3ccc(CC4CCN(CC5CCN(c6ccc7c(c6)C(=O)N(C6CCC(=O)NC6=O)C7=O)CC5)CC4)cn3)CC2)cc1C(F)(F)F (centres unmarked) | 96
N#Cc1ccc(N2CCC(CC(=O)Nc3ccc(N4CCC(CN5CC6(CCN(c7ccc8c(c7)C(=O)N(C7CCC(=O)NC7=O)C8=O)CC6)C5)CC4)cn3)C2)cc1C(F)(F)F (centres unmarked) | 87
N#Cc1ccc(N2CCC(C(=O)Nc3ccc(N4CCC(CN5CCN(C6CCN(c7cccc8c7C(=O)N(C7CCC(=O)NC7=O)C8=O)CC6)CC5)CC4)cn3)CC2)cc1C(F)(F)F (centres unmarked) | 85

---

Property: inhibition at 0.1 µM; scope: individual compounds
# Assay System: Androgen Receptor (AR) protein (Homo sapiens, UniProt P10275, T878A)
# Construct: endogenous in cells; host or cells: LNCaP
# Experimental Details: Androgen Receptor (AR) protein degradation assay in LNCaP cells, western blotting
# Type: cell-based
# Assay Setup: 20 h, 0.1 μM compound

Compound | Assay System | inhibition at 0.1 µM
N#Cc1ccc(N2CCC(C(=O)Nc3ccc(N4CCC(CCN5CCN(c6ccc7c(c6)C(=O)N(C6CCC(=O)NC6=O)C7=O)CC5)CC4)cn3)CC2)cc1C(F)(F)F (centres unmarked) [Example 86] | Androgen Receptor (AR) protein (Homo sapiens, UniProt P10275, T878A) | 94%
N#Cc1ccc(N2CCC(C(=O)Nc3ccc(N4CCC(CCN5CC6(CCN(c7ccc8c(c7)C(=O)N(C7CCC(=O)NC7=O)C8=O)CC6)C5)CC4)cn3)CC2)cc1C(F)(F)F (centres unmarked) [Example 94] | Androgen Receptor (AR) protein (Homo sapiens, UniProt P10275, T878A) | 98%
C[C@@H]1CN(C2CCN(c3ccc4c(c3)C(=O)N(C3CCC(=O)NC3=O)C4=O)CC2)CCN1CC1CCN(c2ccc(NC(=O)C3CCN(c4ccc(C#N)c(C(F)(F)F)c4)CC3)nc2)CC1 (some centres unmarked) [Example 42] | Androgen Receptor (AR) protein (Homo sapiens, UniProt P10275, T878A) | 96%
C[C@@H]1CN(CC2CCN(c3ccc(NC(=O)C4CCN(c5ccc(C#N)c(C(F)(F)F)c5)CC4)nc3)CC2)CCN1CC1CCN(c2ccc3c(c2)C(=O)N(C2CCC(=O)NC2=O)C3=O)CC1 (some centres unmarked) [Example 25] | Androgen Receptor (AR) protein (Homo sapiens, UniProt P10275, T878A) | 98%
N#Cc1ncc(N2CCC(C(=O)Nc3ccc(N4CCC(CN5CCN(C6CCN(c7ccc8c(c7)CN(C7CCC(=O)NC7=O)C8=O)CC6)CC5)CC4)cn3)CC2)cc1C(F)(F)F (centres unmarked) [Example 142] | Androgen Receptor (AR) protein (Homo sapiens, UniProt P10275, T878A) | 87%

---

# Assay System: Androgen Receptor (AR) protein (Homo sapiens, UniProt P10275, T878A)
# Construct: endogenous in cells; host or cells: LNCaP
# Experimental Details: Androgen Receptor (AR) protein degradation assay in LNCaP cells, western blotting
# Assay type: cell-based
# Assay Setup: 20 h, 0.01 μM compound
Quick reference: inhibition at 0.01 µM of the listed items.
Property: inhibition at 0.01 µM (%)

Compound | Property | Unit String | Number
N#Cc1ccc(N2CCC(C(=O)Nc3ccc(N4CCC(CN5CCC6(CC5)CN(c5ccc7c(c5)C(=O)N(C5CCC(=O)NC5=O)C7=O)C6)CC4)cn3)CC2)cc1C(F)(F)F (centres unmarked) | inhibition at 0.01 µM | % | 45
N#Cc1ccc(N2CCC(C(=O)Nc3ccc(N4CCC(CCN5CCN(C6CCN(c7ccc8c(c7)C(=O)N(C7CCC(=O)NC7=O)C8=O)CC6)CC5)CC4)cn3)CC2)cc1C(F)(F)F (centres unmarked) | inhibition at 0.01 µM | % | 48
N#Cc1ccc(N2CCC(C(=O)Nc3ccc(N4CCC(CCN5CCN(c6ccc(C(=O)NC7CCC(=O)NC7=O)nc6)CC5)CC4)cn3)CC2)cc1C(F)(F)F (centres unmarked) | inhibition at 0.01 µM | % | 44
N#Cc1ccc(N2CCC(C(=O)Nc3ccc(N4CCC(CN5CCC6(CC5)CCN(c5ccc7c(c5)C(=O)N(C5CCC(=O)NC5=O)C7=O)CC6)CC4)cn3)CC2)cc1Cl (centres unmarked) | inhibition at 0.01 µM | % | 40
N#Cc1ccc(N2CCC(C(=O)Nc3ccc(N4CCC(CN5CCN(CC6CN(c7ccc8c(c7)C(=O)N(C7CCC(=O)NC7=O)C8=O)C6)CC5)CC4)cn3)CC2)cc1Cl (centres unmarked) | inhibition at 0.01 µM | % | 52
N#Cc1ccc(N2CCC(C(=O)Nc3ccc(N4CCC(CN5CC(N6CCN(c7ccc8c(n7)CN(C7CCC(=O)NC7=O)C8=O)CC6)C5)CC4)cn3)CC2)cc1C(F)(F)F (centres unmarked) | inhibition at 0.01 µM | % | 49
N#Cc1ccc(N2CCC(C(=O)Nc3ccc(N4CCC(CN5CCN(c6ccc7c(c6)C(=O)N(C6CCC(=O)NC6=O)C7=O)CC5)CC4)cn3)CC2)cc1Cl (centres unmarked) | inhibition at 0.01 µM | % | -9
C[C@@H]1CN(CC2CCN(c3ccc(NC(=O)C4CCN(c5ccc(C#N)c(C(F)(F)F)c5)CC4)nc3)CC2)CCN1C1CN(c2ccc3c(c2)C(=O)N(C2CCC(=O)NC2=O)C3=O)C1 (some centres unmarked) | inhibition at 0.01 µM | % | 43
N#Cc1ccc(N2CCC(C(=O)Nc3ccc(N4CC5(CCN(C[C@@H]6CCN(c7ccc8c(c7)C(=O)N(C7CCC(=O)NC7=O)C8=O)C6)CC5)C4)cn3)CC2)cc1C(F)(F)F (some centres unmarked) | inhibition at 0.01 µM | % | 51
N#Cc1ccc(N2CCC(C(=O)Nc3ccc(CN4CCC(CN5CCN(c6ccc7c(c6)C(=O)N(C6CCC(=O)NC6=O)C7=O)CC5)CC4)cn3)CC2)cc1C(F)(F)F (centres unmarked) | inhibition at 0.01 µM | % | 9
N#Cc1ccc(N2CCC(C(=O)Nc3ccc(N4CCC(CN5CC[C@H](CN6CCN(c7ccc8c(c7)C(=O)N(C7CCC(=O)NC7=O)C8=O)CC6)C5)CC4)cn3)CC2)cc1C(F)(F)F (some centres unmarked) | inhibition at 0.01 µM | % | 33

---

# Assay System: Androgen Receptor (AR) protein (Homo sapiens, UniProt P10275, T878A)
# Construct: endogenous in cells; host or cells: LNCaP
# Experimental Details: Androgen Receptor (AR) protein degradation assay in LNCaP cells, western blotting
# Format: cell-based
# Assay Setup: 20 h, 0.1 μM compound
Property: inhibition at 0.1 µM (%)

Molecule | Number
N#Cc1ccc(N2CCC(C(=O)Nc3ccc(N4CC5(CCN(C[C@H]6CCN(c7ccc8c(c7)C(=O)N(C7CCC(=O)NC7=O)C8=O)C6)CC5)C4)cn3)CC2)cc1C(F)(F)F (some centres unmarked) [Example 125] | 84
N#Cc1ccc(N2CCC(C(=O)Nc3ccc(N4CCC(CN5CCN(CC6CCN(c7ccc8c(n7)CN(C7CCC(=O)NC7=O)C8=O)CC6)CC5)CC4)cn3)CC2)cc1C(F)(F)F (centres unmarked) [Example 34] | 99
N#Cc1ccc(N2CCC(C(=O)Nc3ccc(N4CCC(CCN5CCN(c6cccc7c6C(=O)N(C6CCC(=O)NC6=O)C7=O)CC5)CC4)cn3)CC2)cc1C(F)(F)F (centres unmarked) [Example 93] | 55
N#Cc1ccc(N2CCC(C(=O)Nc3ccc(N4CCC(CN5CC6(CCN(c7ccc8c(c7)C(=O)N(C7CCC(=O)NC7=O)C8=O)CC6)C5)CC4)nc3)CC2)cc1C(F)(F)F (centres unmarked) [Example 59] | 32
N#Cc1ccc(N2CCC(C(=O)Nc3ccc(N4CCC(CN5CCN(CC6CN(c7ccc8c(c7)C(=O)N(C7CCC(=O)NC7=O)C8=O)C6)CC5)CC4)cn3)CC2)cc1Cl (centres unmarked) [Example 12] | 95
